- Assay Procedure: basal RPMI8226 mitochondrial membrane potential changes, profiling panel, cell-based, JC-1 fluorescence, 24 h, 100 nL compound (AID 1169); further: test concentration not given here
- Conditions: RPMI8226 myeloma, JC-1 mitochondrial potential fluorescence, higher = more signal
z-score reference

| Molecule | z-score |
| --- | --- |
| O=C(O)[C@@H]1Cc2c([nH]c3ccccc23)[C@@H](c2ccccc2)N1 | -0.122 |
| [N-]=[N+]=NCc1ccccc1C[C@@]1(C(=O)O)N=C(c2ccc(OCCCO)cc2)O[C@@H]1c1ccccc1N=[N+]=[N-] | -0.898 |
| CC(C)CNC(=O)[C@@]1(C)c2ccccc2C(=O)N(Cc2ccc(OC(F)(F)F)cc2)[C@H]1c1ccc(CO)cc1 | 0.862 |
| COc1ccc(CCNC(=O)[C@@]2(c3ccc([N+](=O)[O-])cc3)CC(=O)N(C(C)C)[C@@H]2c2ccc(CO)cc2)cc1 | 1.05 |
| NC(=O)NCC#Cc1ccc2c(c1)[C@]1(C(=O)N2)[C@H](C(=O)N2CCCCCCC2)[C@H]2C(=O)O[C@H](c3ccccc3)[C@H](c3ccccc3)N2[C@@H]1c1ccccc1OCCO | -0.56 |
| [N-]=[N+]=NCc1ccccc1C[C@]1(C(=O)N2CCCCC2)N=C(c2ccc(OCCCO)cc2)O[C@H]1c1ccccc1CN=[N+]=[N-] | -1.19 |
| C=CCNC(=O)[C@H]1[C@@H]2C(=O)O[C@@H](c3ccccc3)[C@@H](c3ccccc3)N2[C@@H](c2ccccc2OCCO)[C@]12C(=O)N(C(=O)OCCOC)c1ccc(C#CCC(C(=O)OC)C(=O)OC)cc12 | -1.02 |
| COCCOC(=O)N1C(=O)[C@@]2(c3cc(C#CCCO)ccc31)[C@H](c1ccc(O)cc1)N1[C@H](c3ccccc3)[C@H](c3ccccc3)OC(=O)[C@H]1[C@@H]2C(=O)Nc1nc2ccccc2s1 | -0.684 |
| CO[C@H]1COC(=O)[C@H](C)COC(=O)[C@H](Cc2ccccc2)NC(=O)CC=C[C@H]1C | 0.433 |
| CC(=O)NCCCC[C@@H]1NC(=O)[C@@H]2C[C@H](C(=O)NCCCCCCN(C)C)[C@H](c3ccc(O)cc3)N2C1=O | 0.641 |
| CO[C@H]1COC(=O)CC=C[C@H](C)COC(=O)[C@@H](OCc2ccccc2)C=C[C@@H]1C | 0.103 |
| C=CCN1C(=O)[C@@]2(O[C@@H](CCn3cc([C@H](O)c4ccccc4)nn3)[C@H]([Si](C)(C)c3ccc(OC)cc3)[C@H]2C)c2cc(N3CCOC3=O)ccc21 | -0.376 |
| C[C@]1(C(=O)NCCN2CCOCC2)c2ccccc2C(=O)N(Cc2ccccc2)[C@H]1c1ccc(CO)cc1 | -0.0116 |
| O=C/C=C/c1ccccc1Cl | 0.562 |
| CN1C(=O)C2C=CC(C(O)C3CC=CCC3)N(Nc3ccccc3)C2C1=O (configuration not stated) | 0.116 |
| Cc1ccc(S(=O)(=O)N[C@H]2COC(=O)CC=C[C@H](C)COC(=O)N[C@@H](C)C(=O)CC=C[C@@H]2C)cc1 | -0.614 |
| [N-]=[N+]=Nc1ccccc1C[C@@]1(C(=O)N2CCOCC2)N=C(c2ccc(OCCCO)cc2)O[C@@H]1c1ccccc1N=[N+]=[N-] | -1.23 |
| C#CCCCON=C1C[C@@H](O)[C@@H](O)[C@@H]2[C@@H]3C(=O)N(Cc4ccc5c(c4)OCO5)C(=O)[C@@H]3CC[C@@H]12 | 0.412 |
| C[C@@H]1NC(=O)CC=C[C@@H](C)[C@@H]2C=C[C@H](O)[C@@H](COC(=O)[C@H](C)NC(=O)CC=C[C@@H](C)[C@@H]3C=C[C@H](O)[C@@H](COC1=O)O3)O2 | 0.21 |
| C[C@@H]1C=CCC(=O)OC[C@H]2O[C@@H](C=C[C@@H]2O)[C@H](C)C=CCC(=O)OC[C@H]2O[C@H]1C=C[C@@H]2O | -0.744 |
| CC(C)(C)OC(=O)CC[C@@]1(C(=O)NCc2ccccc2)N=C(c2ccc(OCCCO)cc2)O[C@@H]1c1ccccc1 | -0.791 |
| CC(C)CN1C(=O)[C@@]2(Cc3ccccc31)c1ccccc1C(=O)N(C1CCCCC1)[C@H]2c1ccc(CO)cc1 | -0.6 |

meta.source: PubChem BioAssay
